Test system: Human immunodeficiency virus 1
Test: Antiviral activity against NNRTI-resistant HIV1 with reverse transcriptase Y188L mutant in HeLa cells by MAGI assay
Assay type: functional, organism-based
Conditions: Human immunodeficiency virus 1, HeLa
IC50 values, listed per item
Respond numerically; units are nM and should not be typed.

Worked examples, 2 compounds total:
{"COMPOUND": "O=C1Nc2ccc(Cl)cc2C(C#CC2CC2)(C(F)(F)F)O1 (single isomer, unassigned)", "ENDPOINT VALUE": 154}
{"COMPOUND": "Cc1cc(S(N)(=O)=O)ccc1NC(=O)COc1ccc(Cl)cc1C(=O)c1cc(F)cc(C(F)(F)F)c1", "ENDPOINT VALUE": 66}

From here, focus on the item given below.
Prompt line: State the recorded IC50 for this entry: `Cc1cc(S(N)(=O)=O)ccc1NC(=O)COc1ccc(Cl)cc1C(=O)c1cc(Cl)cc(C#N)c1`
Response line: 14
